Data provenance: paper PMC5830749

- test-name: LCMS analysis of the reaction of the dyes with H2O2 in PBS
- Assay type: physicochemical
- condition-context: 30 µM in PBS pH 7.4, time point 60 minutes, no H2O2, UV 254 nm
value-type: Hydrolyzed (boronic acid derivative) Rel. Area (%)

Field: example entries. Status: answers known.
smi	test-result
COc1ccc2c(c1)sc(-c1ccc(B3OC(C)(C)C(C)(C)O3)cc1)[n+]2C.F[B-](F)(F)F	100
COc1ccc2c(c1)sc(-c1ccc(B3OCC(C)(C)CO3)cc1)[n+]2C.F[B-](F)(F)F	100

P = COc1ccc2nc(-c3ccc(B4OCC(C)(C)CO4)cc3)sc2c1
Q = COc1ccc2nc(-c3ccc(B4OC(C)(C)C(C)(C)O4)cc3)sc2c1
Exercise: Please let me know which one, P or Q , has a lower measured Hydrolyzed (boronic acid derivative) Rel. Area value. Selection: enter the item's label.
Solution: Q
(Q: 47%, P: 100%)

* * *

- test-name: Bulk photophysical properties of free dyes in PBS
- condition-context: free dye, PBS pH 7.4
value-type: maximum absorption wavelength (λabs) (nm)

compound	test-result
COc1ccc2nc(-c3ccc(B4OC(C)(C)C(C)(C)O4)cc3)sc2c1	330
Cc1ccc2c(c1)sc(-c1ccc(N(C)C)cc1)[n+]2C [ThT, thioflavin t, reference compound]	412
COc1ccc2nc(-c3ccc(B4OCC(C)(C)CO4)cc3)sc2c1	330
COc1ccc2c(c1)sc(-c1ccc(B3OC(C)(C)C(C)(C)O3)cc1)[n+]2C.F[B-](F)(F)F	330
COc1ccc2c(c1)sc(-c1ccc(B3OCC(C)(C)CO3)cc1)[n+]2C.F[B-](F)(F)F	330

* * *

- test-name: Bulk photophysical properties of free dyes in PBS
- condition-context: free dye, PBS pH 7.4
value-type: molar extinction coefficient ε (M⁻¹ cm⁻¹)

I = COc1ccc2nc(-c3ccc(B4OC(C)(C)C(C)(C)O4)cc3)sc2c1
II = COc1ccc2nc(-c3ccc(B4OCC(C)(C)CO4)cc3)sc2c1
Exercise: Short answer wanted: higher molar extinction coefficient ε, I or II ? Selection: enter the item's label.
Solution: I
(I: 6400 M⁻¹ cm⁻¹, II: 4200 M⁻¹ cm⁻¹)

* * *

- test-name: Bulk fluorescence response of dyes to H2O2
- condition-context: dyes incubated with H2O2, recorded over 5 h at 20 min intervals
value-type: gradient of fluorescence intensity versus time curve (min⁻¹)
Hi! Could you send only the number? It should be in min⁻¹, unit omitted.

smi	unit-symbol	test-result
COc1ccc2nc(-c3ccc(B4OCC(C)(C)CO4)cc3)sc2c1	min⁻¹	0.017
COc1ccc2nc(-c3ccc(B4OC(C)(C)C(C)(C)O4)cc3)sc2c1	min⁻¹	0.112
COc1ccc2c(c1)sc(-c1ccc(B3OC(C)(C)C(C)(C)O3)cc1)[n+]2C.F[B-](F)(F)F	min⁻¹	0.011

Continue with the compound presented below.
Exercise: Give the reported gradient of fluorescence intensity versus time curve for this compound. "COc1ccc2c(c1)sc(-c1ccc(B3OCC(C)(C)CO3)cc1)[n+]2C.F[B-](F)(F)F"
Solution: 0.015

* * *

- test-name: Bulk photophysical properties of free dyes in PBS
- condition-context: free dye, PBS pH 7.4
value-type: maximum emission wavelength (λem) (nm)

compound	maximum emission wavelength (λem) [nm]
COc1ccc2c(c1)sc(-c1ccc(B3OC(C)(C)C(C)(C)O3)cc1)[n+]2C.F[B-](F)(F)F [mBE01]	417
COc1ccc2nc(-c3ccc(B4OC(C)(C)C(C)(C)O4)cc3)sc2c1 [BE01]	416
Cc1ccc2c(c1)sc(-c1ccc(N(C)C)cc1)[n+]2C [ThT, thioflavin t, reference compound]	486
COc1ccc2c(c1)sc(-c1ccc(B3OCC(C)(C)CO3)cc1)[n+]2C.F[B-](F)(F)F [mBE02]	417
COc1ccc2nc(-c3ccc(B4OCC(C)(C)CO4)cc3)sc2c1 [BE02]	412

* * *

- test-name: Bulk photophysical properties of free dyes in PBS
- condition-context: free dye, PBS pH 7.4, relative to a standard
value-type: fluorescence quantum yield ΦFl

Field: example entries. Status: answers known.
compound	fluorescence quantum yield ΦFl
Cc1ccc2c(c1)sc(-c1ccc(N(C)C)cc1)[n+]2C [ThT, thioflavin t, reference compound]	0.00
COc1ccc2c(c1)sc(-c1ccc(B3OCC(C)(C)CO3)cc1)[n+]2C.F[B-](F)(F)F	0.01
COc1ccc2nc(-c3ccc(B4OCC(C)(C)CO4)cc3)sc2c1	0.04

a = COc1ccc2c(c1)sc(-c1ccc(B3OC(C)(C)C(C)(C)O3)cc1)[n+]2C.F[B-](F)(F)F
b = COc1ccc2nc(-c3ccc(B4OC(C)(C)C(C)(C)O4)cc3)sc2c1
Exercise: Please let me know which one, a or b , has a lower measured fluorescence quantum yield ΦFl value. Selection: enter the item's label.
Solution: a

* * *

- test-name: Bulk photophysical properties of free dyes in PBS
- condition-context: free dye, PBS pH 7.4
value-type: Stokes shift (λem − λabs) (nm)

compound	Stokes shift (λem − λabs) / nm
COc1ccc2nc(-c3ccc(B4OC(C)(C)C(C)(C)O4)cc3)sc2c1 [BE01]	86
COc1ccc2nc(-c3ccc(B4OCC(C)(C)CO4)cc3)sc2c1 [BE02]	82
COc1ccc2c(c1)sc(-c1ccc(B3OC(C)(C)C(C)(C)O3)cc1)[n+]2C.F[B-](F)(F)F [mBE01]	87
COc1ccc2c(c1)sc(-c1ccc(B3OCC(C)(C)CO3)cc1)[n+]2C.F[B-](F)(F)F [mBE02]	87

* * *

- test-name: Bulk photophysical properties of free dyes in PBS
- condition-context: free dye, PBS pH 7.4
value-type: brightness (ε × ΦFl) (M⁻¹ cm⁻¹)

molecule	brightness (ε × ΦFl) [M⁻¹ cm⁻¹]
COc1ccc2c(c1)sc(-c1ccc(B3OC(C)(C)C(C)(C)O3)cc1)[n+]2C.F[B-](F)(F)F [mBE01]	168
COc1ccc2nc(-c3ccc(B4OCC(C)(C)CO4)cc3)sc2c1 [BE02]	168
Cc1ccc2c(c1)sc(-c1ccc(N(C)C)cc1)[n+]2C [ThT, thioflavin t, reference compound]	15

1 = COc1ccc2c(c1)sc(-c1ccc(B3OCC(C)(C)CO3)cc1)[n+]2C.F[B-](F)(F)F [mBE02]
2 = COc1ccc2nc(-c3ccc(B4OC(C)(C)C(C)(C)O4)cc3)sc2c1 [BE01]
Exercise: Please let me know which one, 1 or 2 , has a lower measured brightness (ε × ΦFl) value. Selection: enter the item's label.
Solution: 1

* * *

Below, each of the compounds is paired with its reported molar extinction coefficient ε value.
- test-name: Bulk photophysical properties of free dyes in PBS
- condition-context: free dye, PBS pH 7.4

compound	test-result
Cc1ccc2c(c1)sc(-c1ccc(N(C)C)cc1)[n+]2C [ThT, thioflavin t, reference compound]	37 500 M^−1 cm^−1

Exercise: Give the reported molar extinction coefficient ε for this compound. "COc1ccc2c(c1)sc(-c1ccc(B3OCC(C)(C)CO3)cc1)[n+]2C.F[B-](F)(F)F"
Solution: 14 800 M^−1 cm^−1

Exercise: Give the reported molar extinction coefficient ε for this compound. "COc1ccc2c(c1)sc(-c1ccc(B3OC(C)(C)C(C)(C)O3)cc1)[n+]2C.F[B-](F)(F)F"
Solution: 16 800 M^−1 cm^−1
